Attribute: selectivity ratio
- procedure_details: Therapeutic index, ratio of IC50 for HK-2 cells to MIC for Staphylococcus aureus Newman
- Type: toxicity, cell-based
- conditions: human, read-out: TI
metric: selectivity ratio

{"columns": ["smiles_representation", "metric", "result"],
 "data": [
  ["O=C1C2=C(CCN(Cc3ccccc3)C2)N2CCN=C2N1Cc1ccc(C(F)(F)F)cc1", "selectivity ratio", 0.06],
  ["CC[C@H](C)[C@H]1C(=O)N(Cc2ccc(OC)c3ccccc23)C[C@@H]2N(C(=O)NCCCC(F)(F)F)CCC(=O)N12", "selectivity ratio", 180],
  ["CC[C@H](C)[C@H]1C(=O)N([C@H](C)c2cccc3ccccc23)C[C@@H]2N(C(=O)NCCCC(F)(F)F)CCC(=O)N12", "selectivity ratio", 29]
]}

Where do the numbers come from? From ChEMBL document CHEMBL6096689.
